Tested on: SW 1271 complex spheroids, viability
Assay: Anticancer human tumor SW 1271 cell line growth inhibition [LSD1]
Conditions: second compound 1 µM; first compound 0.000949 µM; active compounds read low
Rule: viability, T/C below 60% gives true. Equal to or above 60% gives false.

Use the examples below as a reference point.
{"columns": ["Compound", "Qualitative label"],
 "data": [
  ["Nc1ccn(C2OC(CO)C(O)C2(F)F)c(=O)n1 (stereo unspecified) + NC1CCC(NC2CC2c2ccccc2)CC1", "false"],
  ["CCc1c2c(nc3ccc(O)cc13)-c1cc3c(c(=O)n1C2)COC(=O)[C@]3(O)CC + NC1CC1c1ccc(-c2cccc(O)c2)cc1", "true"],
  ["Nc1ccn(C2OC(CO)C(O)C2(F)F)c(=O)n1 (stereo unspecified) + NC1CC1c1ccc(-c2cccc(O)c2)cc1", "false"],
  ["Nc1ncn(C2CC(O)C(CO)S2)c(=O)n1 (stereo unspecified) + NC1CCC(NC2CC2c2ccccc2)CC1", "false"],
  ["Nc1ncn(C2CC(O)C(CO)S2)c(=O)n1 (stereo unspecified) + NC1CC1c1ccc(-c2cccc(O)c2)cc1", "false"]
]}

Okay, next one:
Strictly below 60%: is that where viability, T/C of CCc1c2c(nc3ccc(O)cc13)-c1cc3c(c(=O)n1C2)COC(=O)[C@]3(O)CC + NC1CCC(NC2CC2c2ccccc2)CC1 sits?
true

====

Give measured viability, T/C for each item. Keep answers brief.
Test system: SW 1271 complex spheroids, viability
Assay: Anticancer human tumor SW 1271 cell line growth inhibition [LSD1];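 further: spheroids exposed to agents for 7 days before luminescence read; 100% = DMSO vehicle control viability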
Conditions: second compound 0.1 µM; first compound 0.01 µM; active compounds read low
Give bare numbers, in %.

{"columns": ["Compound", "Study target", "Unit descriptor", "viability, T/C"],
 "data": [
  ["CC(C)CC(NC(=O)CNC(=O)c1cc(Cl)ccc1Cl)B1OC(=O)CC(CC(=O)O)(C(=O)O)O1 (configuration not stated) + NC1CC1c1ccc(-c2cccc(O)c2)cc1", "SW 1271 complex spheroids, viability", "%", 6.29]
]}

Please give viability, T/C for each item listed below.
1. CC(C)CC(NC(=O)C(Cc1ccccc1)NC(=O)c1cnccn1)B(O)O (configuration not stated) + NC1CCC(NC2CC2c2ccccc2)CC1
2. COc1cc(Nc2ncc3c(n2)-c2ccc(Cl)cc2C(c2c(F)cccc2OC)=NC3)ccc1C(=O)O + NC1CCC(NC2CC2c2ccccc2)CC1
3. CC(C)CC(NC(=O)CNC(=O)c1cc(Cl)ccc1Cl)B1OC(=O)CC(CC(=O)O)(C(=O)O)O1 (configuration not stated) + NC1CCC(NC2CC2c2ccccc2)CC1
4. COc1cc(Nc2ncc3c(n2)-c2ccc(Cl)cc2C(c2c(F)cccc2OC)=NC3)ccc1C(=O)O + NC1CC1c1ccc(-c2cccc(O)c2)cc1

1: 0.13; 2: 78.2; 3: 5.55; 4: 69.2

Please give viability, T/C for each item listed below.
1. CC[C@@]1(O)C(=O)OCc2c1cc1n(c2=O)Cc2cc3c(CN(C)C)c(O)ccc3nc2-1 + NC1CC1c1ccc(-c2cccc(O)c2)cc1
2. Nc1ncn(C2CC(O)C(CO)O2)c(=O)n1 (configuration not stated) + NC1CC1c1ccc(-c2cccc(O)c2)cc1

1: 63.6; 2: 77.9

====

Give measured viability, T/C for each item. Keep answers brief.
Test system: SW 1271 complex spheroids, viability
Assay: Anticancer human tumor SW 1271 cell line growth inhibition [LSD1];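 further: spheroids exposed to agents for 7 days before luminescence read; 100% = DMSO vehicle control viability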
Conditions: second compound 0.1 µM; first compound 1 µM; active compounds read low
From the text: Multicellular complex tumor spheroid response to LSD1 Inhibitor Iadademstat in combination with a variety of drugs and investigational agents in selected tumor cell lines The current study was undertaken to assess response to LSD1 inhibitors in combination with standard-of-care drugs and investigational agents in solid tumor complex spheroid models as well as in the K-562 leukemia. […] Compounds. […] If the clinical Cmax for an agent had not been determined, the highest concentration tested was 10 microM. […]
Numbers only, in %.

Solved entries:
{"columns": ["Molecule", "Unit descriptor", "viability, T/C"],
 "data": [
  ["CC(C)c1c(-c2ccccc2)nc2c(C#N)c[nH]n2c1=O + NC1CC1c1ccc(-c2cccc(O)c2)cc1", "%", 77.5],
  ["CC1(C)CCC(CN2CCN(c3ccc(C(=O)NS(=O)(=O)c4ccc(NCC5CCOCC5)c([N+](=O)[O-])c4)c(Oc4cnc5[nH]ccc5c4)c3)CC2)=C(c2ccc(Cl)cc2)C1 + NC1CCC(NC2CC2c2ccccc2)CC1", "%", 92.2],
  ["CC(C)c1c(-c2ccccc2)nc2c(C#N)c[nH]n2c1=O + NC1CCC(NC2CC2c2ccccc2)CC1", "%", 82.8],
  ["COc1ccc([C@@H](O)c2cc(-c3ncnc4cc(N5CCOCC5)ccc34)c(F)cc2Cl)nn1 + NC1CC1c1ccc(-c2cccc(O)c2)cc1", "%", 44.4],
  ["O=C(c1cc(Cc2n[nH]c(=O)c3ccccc23)ccc1F)N1CCN(C(=O)C2CC2)CC1 + NC1CC1c1ccc(-c2cccc(O)c2)cc1", "%", 72.9],
  ["Nc1ncn(C2CC(O)C(CO)O2)c(=O)n1 (configuration not stated) + NC1CC1c1ccc(-c2cccc(O)c2)cc1", "%", 81]
]}

Consider the molecule COc1cc(Nc2ncc3c(n2)-c2ccc(Cl)cc2C(c2c(F)cccc2OC)=NC3)ccc1C(=O)O + NC1CC1c1ccc(-c2cccc(O)c2)cc1 and give its measured viability, T/C.
13.3

====

Give measured viability, T/C for each item. Keep answers brief.
System: SW 1271 complex spheroids, viability
Test: Anticancer human tumor SW 1271 cell line growth inhibition [LSD1];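 further: spheroids exposed to agents for 7 days before luminescence read; 100% = DMSO vehicle control viability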
Conditions: second compound 0.1 µM; first compound 1 µM; active compounds read low
From the text: Multicellular complex tumor spheroid response to LSD1 Inhibitor Iadademstat in combination with a variety of drugs and investigational agents in selected tumor cell lines The current study was undertaken to assess response to LSD1 inhibitors in combination with standard-of-care drugs and investigational agents in solid tumor complex spheroid models as well as in the K-562 leukemia. […] Compounds. […] If the clinical Cmax for an agent had not been determined, the highest concentration tested was 10 microM. […]
Numbers only, in %.

Solved entries:
{"columns": ["Compound", "viability, T/C (%)"],
 "data": [
  ["COc1cc(Nc2ncc3c(n2)-c2ccc(Cl)cc2C(c2c(F)cccc2OC)=NC3)ccc1C(=O)O + NC1CCC(NC2CC2c2ccccc2)CC1", 16],
  ["CC1COCCN1c1cc(-c2ccnn2C)c2ccnc(-c3ccn[nH]3)c2n1 (stereo unspecified) + NC1CC1c1ccc(-c2cccc(O)c2)cc1", 26.6],
  ["O=C(C=Cn1cnc(-c2cc(C(F)(F)F)cc(C(F)(F)F)c2)n1)NNc1cnccn1 + NC1CCC(NC2CC2c2ccccc2)CC1", 24.6],
  ["CC1COCCN1c1cc(-c2ccnn2C)c2ccnc(-c3ccn[nH]3)c2n1 (stereo unspecified) + NC1CCC(NC2CC2c2ccccc2)CC1", 29.8],
  ["CC1(C)CCC(CN2CCN(c3ccc(C(=O)NS(=O)(=O)c4ccc(NCC5CCOCC5)c([N+](=O)[O-])c4)c(Oc4cnc5[nH]ccc5c4)c3)CC2)=C(c2ccc(Cl)cc2)C1 + NC1CC1c1ccc(-c2cccc(O)c2)cc1", 78.3]
]}

Please give viability, T/C for each item listed below.
1. O=C(C=Cn1cnc(-c2cc(C(F)(F)F)cc(C(F)(F)F)c2)n1)NNc1cnccn1 + NC1CC1c1ccc(-c2cccc(O)c2)cc1
2. COc1ccc([C@@H](O)c2cc(-c3ncnc4cc(N5CCOCC5)ccc34)c(F)cc2Cl)nn1 + NC1CCC(NC2CC2c2ccccc2)CC1
3. CC1COCCN1c1cc(C2(S(C)(=N)=O)CC2)nc(-c2ccnc3[nH]ccc23)n1 (stereo unspecified) + NC1CC1c1ccc(-c2cccc(O)c2)cc1
4. Nc1ncn(C2CC(O)C(CO)O2)c(=O)n1 (stereo unspecified) + NC1CCC(NC2CC2c2ccccc2)CC1

21.6
49.4
49
81.3

Please give viability, T/C for each item listed below.
1. CC1COCCN1c1cc(C2(S(C)(=N)=O)CC2)nc(-c2ccnc3[nH]ccc23)n1 (stereo unspecified) + NC1CCC(NC2CC2c2ccccc2)CC1
2. O=C(c1cc(Cc2n[nH]c(=O)c3ccccc23)ccc1F)N1CCN(C(=O)C2CC2)CC1 + NC1CCC(NC2CC2c2ccccc2)CC1

1. 76.2
2. 86.2

====

Test system: SW 1271 complex spheroids, viability
Experiment: Anticancer human tumor SW 1271 cell line growth inhibition [LSD1];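 further: spheroids exposed to agents for 7 days before luminescence read; 100% = DMSO vehicle control viability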
Conditions: second compound 1 µM; first compound 0.000316 µM; active compounds read low
Give measured viability, T/C for each item. Keep answers brief.
Give bare numbers, in %.

Please give viability, T/C for each item listed below.
1. CC(C)CC(NC(=O)C(Cc1ccccc1)NC(=O)c1cnccn1)B(O)O (stereo not drawn) + NC1CCC(NC2CC2c2ccccc2)CC1
2. CC(C)CC(NC(=O)CNC(=O)c1cc(Cl)ccc1Cl)B1OC(=O)CC(CC(=O)O)(C(=O)O)O1 (stereo not drawn) + NC1CCC(NC2CC2c2ccccc2)CC1
3. Cn1ncnc1C1c2n[nH]c(=O)c3cc(F)cc(c23)NC1c1ccc(F)cc1 (stereo not drawn) + NC1CCC(NC2CC2c2ccccc2)CC1
4. CC[C@@]1(O)C(=O)OCc2c1cc1n(c2=O)Cc2cc3c(CN(C)C)c(O)ccc3nc2-1 + NC1CCC(NC2CC2c2ccccc2)CC1
5. CC[C@@]1(O)C(=O)OCc2c1cc1n(c2=O)Cc2cc3c(CN(C)C)c(O)ccc3nc2-1 + NC1CC1c1ccc(-c2cccc(O)c2)cc1
6. CC(C)CC(NC(=O)C(Cc1ccccc1)NC(=O)c1cnccn1)B(O)O (stereo not drawn) + NC1CC1c1ccc(-c2cccc(O)c2)cc1
7. CC(C)CC(NC(=O)CNC(=O)c1cc(Cl)ccc1Cl)B1OC(=O)CC(CC(=O)O)(C(=O)O)O1 (stereo not drawn) + NC1CC1c1ccc(-c2cccc(O)c2)cc1

1: 2.83; 2: 78.5; 3: 91.7; 4: 73.4; 5: 76.6; 6: 2.62; 7: 75.1

Consider the molecule Cn1ncnc1C1c2n[nH]c(=O)c3cc(F)cc(c23)NC1c1ccc(F)cc1 (stereo not drawn) + NC1CC1c1ccc(-c2cccc(O)c2)cc1 and give its measured viability, T/C.
78.1

Origin of measurements: PubChem BioAssay AID1918941
